Listing of entries alongside the reported GI50.
# System: KM-20L2
# Assay Summary: NCI tumour cell line growth inhibition, 48 h
Active and inactive are the calls of the source. Cut-off read from the data, not from the text of the source: active = GI50 up to about 1.1 µM and inactive = higher.

[
  {
    "Compound": "OCCN(CCO)c1ncnc2c1sc(=S)n2-c1ccccc1",
    "GI50": "> 100 µM (inactive)"
  },
  {
    "Compound": "CNC(=O)NCCCCC(NC(=O)OCc1ccccc1)C(=O)OCc1ccccc1 (stereo unspecified)",
    "GI50": "> 100 µM (inactive)"
  },
  {
    "Compound": "CS/C(=N/C(=O)c1ccccc1Cl)SCCS/C(=N\\C(=O)c1ccccc1Cl)SC",
    "GI50": "> 100 µM (inactive)"
  },
  {
    "Compound": "CCN(CC)CCNc1ccc(CO)c2sc3ccccc3c(=O)c12",
    "GI50": "5.37 µM (inactive)"
  },
  {
    "Compound": "CCCCCCCCCCCCCP(=O)(O)NCC(N)=O",
    "GI50": "98.6 µM (inactive)"
  },
  {
    "Compound": "Cc1nc2nnc(C)n2c2c1C(=O)Nc1ccccc1N2",
    "GI50": "> 100 µM (inactive)"
  },
  {
    "Compound": "O=C(N/C(=C\\c1ccc(/C=C(\\NC(=O)c2ccccc2)c2nc3cc([N+](=O)[O-])ccc3[nH]2)cc1)c1nc2cc([N+](=O)[O-])ccc2[nH]1)c1ccccc1",
    "GI50": "37.8 µM (inactive)"
  },
  {
    "Compound": "NC1=Nc2ccccc2Sc2ccccc21",
    "GI50": "> 100 µM (inactive)"
  },
  {
    "Compound": "CN(C)c1ccc(/C=C(\\NC(=O)c2ccccc2)c2nc3cncnc3[nH]2)cc1",
    "GI50": "> 100 µM (inactive)"
  },
  {
    "Compound": "COC(=O)c1ccc(C(=O)OC)c2nc3cc(Cl)ccc3nc12",
    "GI50": "> 100 µM (inactive)"
  },
  {
    "Compound": "CCOC(=O)c1cc(OC(=O)CC)c2c(OC)ccc(OC)c2c1",
    "GI50": "> 10 µM (inactive)"
  }
]
